Assay overview: Human HepG2 cell viability assay in 384 well format
Assay type: toxicity, cell-based
Design: dose 125 nL, time 70.5 hour; concentration not given beside the values
Experimental parameters: HepG2 cells, read-out: Inhibition
Value kind: cytotoxicity at 70.5 h (%)
Could you give me the number in %? Just the number is fine.

CC1CCN(C(=O)CN(Cc2ccco2)C2CC2)CC1: -9.01
CCn1ccc(C(=O)N2CCCC2(C)c2nc(C)cc(N(C)C)n2)n1 (stereo not drawn): -7.92
CC(CNCc1ccc(Cl)cc1)Oc1ccccn1 (stereo not drawn): -10
CC(=O)N1CCN(c2ccc3ccc(C(=O)NC4CCCC4)cn23)CC1: -14.6
COc1ccccc1OCc1cc(C(=O)N2CCOCC2CO)n[nH]1 (stereo not drawn): -5.23

Query block: Fill in: cytotoxicity at 70.5 h of COCCn1cc(C(=O)N2CCCC2c2cccs2)c2ccccc21 (stereo not drawn) is ___
Result block: 7.25

Query block: Fill in: cytotoxicity at 70.5 h of "CN(C)c1cnn(CC(=O)N2CCN(Cc3cccs3)CC2)c(=O)c1" is ___
Result block: -8.39

Query block: Fill in: cytotoxicity at 70.5 h of "COc1cccc(CC(=O)N2CC[C@@H]3[C@H](CC2)N(C)CCS3(=O)=O)c1" is ___
Result block: -2.21

Query block: Fill in: cytotoxicity at 70.5 h of Cn1cnc2c1C(COCc1cccnc1)N(Cc1nccs1)CC2 (stereo not drawn) is ___
Result block: -1.3

Query block: Fill in: cytotoxicity at 70.5 h of "Cc1n[nH]cc1CNC1(c2ccc(Br)cc2)CC1" is ___
Result block: -0.84

Query block: Fill in: cytotoxicity at 70.5 h of CC(C)CCn1cc(C(C(=O)O)N2CCSCC2)cn1 (stereo not drawn) is ___
Result block: -12.4

Query block: Fill in: cytotoxicity at 70.5 h of "CCCN1CCCn2nc(CNC(=O)CN(C)C3CCCC3)cc2C1" is ___
Result block: -8

Query block: Fill in: cytotoxicity at 70.5 h of "CC(C)(C)c1nccc(C2(c3ccccc3Cl)CCNCC2)n1" is ___
Result block: 78.4

----------
Assay overview: Human HepG2 cell viability assay in 384 well format
Type: toxicity, cell-based
Design: dose 125 nL, time 70.5 hour; concentration not given beside the values
Experimental parameters: HepG2 cells, read-out: Inhibition
Value kind: cytotoxicity at 70.5 h (%)
Could you give me the number in %? Just the number is fine.

Reference set (5 entries):
NC[C@H]1CC[C@H](C(NC(=O)CC2CCCC2)c2ccccn2)CC1 (some centres not stated): -0.374
CC(C)CN1CC2(CCN(C(=O)c3cn4cccnc4n3)CC2)CC1=O: -17.9
CC(=O)NCC(=O)N1CCCC1c1ccc(CN2CCOCC2)cn1 (configuration not stated): -4.76
O=C(OC1CCC1)c1ncccc1OCC(F)(F)F: 15.8
O=C(Cc1ccon1)N1CCN(c2ccncc2Cl)CC1: 5.48

Query block: Fill in: cytotoxicity at 70.5 h of "Cc1noc(CNC(=O)c2ccccc2-n2cc(CN)cn2)n1" is ___
Result block: -5.09

Query block: Fill in: cytotoxicity at 70.5 h of "Cc1c(Cl)cccc1NC(=O)c1nc[nH]n1" is ___
Result block: 19.3
